molecular target: ERK2 (Homo sapiens); experiment: […] kinase assay with recombinant active ERK2; format: biochemical
Sequence (P28482 2-360): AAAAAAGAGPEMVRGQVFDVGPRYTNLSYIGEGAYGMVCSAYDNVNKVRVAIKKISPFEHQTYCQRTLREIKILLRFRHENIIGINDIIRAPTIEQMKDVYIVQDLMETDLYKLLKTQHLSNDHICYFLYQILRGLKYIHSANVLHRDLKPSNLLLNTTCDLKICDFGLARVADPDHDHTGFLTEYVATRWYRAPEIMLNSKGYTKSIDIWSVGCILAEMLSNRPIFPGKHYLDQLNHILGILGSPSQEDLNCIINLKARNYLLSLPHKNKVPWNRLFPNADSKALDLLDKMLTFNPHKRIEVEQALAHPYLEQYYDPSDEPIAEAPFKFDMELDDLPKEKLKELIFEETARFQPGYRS
measure_name: pIC50
Keep it numeric: pIC50 is minus log10 of the concentration in mol/L.

*Q* Supply pIC50 value. Item: O=C1CCC(O)(CCOC(=O)/C=C/c2ccc(O)c(O)c2)CC1 [HOEC]
*A* 4.68

----------
molecular target: p110α (PI3-K) (Homo sapiens, UniProt P42336); assay: […] lipid kinase assay with recombinant active p110α; type: biochemical
Sequence (P42336 whole entry): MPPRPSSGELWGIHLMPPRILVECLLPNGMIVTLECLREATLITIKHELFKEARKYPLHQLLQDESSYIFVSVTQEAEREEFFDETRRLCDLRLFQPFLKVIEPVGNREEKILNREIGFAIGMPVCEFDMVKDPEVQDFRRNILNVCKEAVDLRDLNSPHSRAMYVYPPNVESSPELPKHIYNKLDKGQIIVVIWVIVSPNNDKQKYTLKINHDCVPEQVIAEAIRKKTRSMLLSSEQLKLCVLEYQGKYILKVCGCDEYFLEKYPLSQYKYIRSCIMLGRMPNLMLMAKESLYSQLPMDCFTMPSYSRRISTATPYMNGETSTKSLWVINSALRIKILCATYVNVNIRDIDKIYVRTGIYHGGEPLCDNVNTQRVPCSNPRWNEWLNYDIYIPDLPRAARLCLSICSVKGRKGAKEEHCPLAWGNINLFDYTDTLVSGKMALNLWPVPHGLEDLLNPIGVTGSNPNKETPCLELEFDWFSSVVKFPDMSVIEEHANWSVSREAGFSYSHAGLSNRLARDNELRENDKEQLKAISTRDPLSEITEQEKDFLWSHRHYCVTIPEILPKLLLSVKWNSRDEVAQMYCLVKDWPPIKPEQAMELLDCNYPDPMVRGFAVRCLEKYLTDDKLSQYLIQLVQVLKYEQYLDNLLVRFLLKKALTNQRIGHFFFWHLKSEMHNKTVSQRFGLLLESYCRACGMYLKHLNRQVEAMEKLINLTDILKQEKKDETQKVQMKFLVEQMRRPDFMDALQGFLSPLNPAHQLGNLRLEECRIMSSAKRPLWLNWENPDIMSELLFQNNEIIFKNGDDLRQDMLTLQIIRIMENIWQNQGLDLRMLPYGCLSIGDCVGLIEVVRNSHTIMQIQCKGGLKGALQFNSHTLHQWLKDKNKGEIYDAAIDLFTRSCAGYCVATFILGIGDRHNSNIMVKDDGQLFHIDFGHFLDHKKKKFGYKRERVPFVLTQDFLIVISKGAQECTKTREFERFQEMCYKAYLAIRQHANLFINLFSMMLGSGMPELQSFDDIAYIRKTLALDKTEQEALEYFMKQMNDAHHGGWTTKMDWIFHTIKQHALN
measure_name: pIC50
Keep it numeric: pIC50 is minus log10 of the concentration in mol/L.

*Q* Provide pIC50, recorded with p110α (PI3-K) (Homo sapiens, UniProt P42336), of `O=C1CCC(O)(CCOC(=O)/C=C/c2ccc(O)c(O)c2)CC1`
*A* 4.99

These entries and their values trace back to paper PMC4125463.
